Data provenance: the NIST ThermoML archive (doi:10.1021/acs.jced.6b00210)

Conditions: 323.15 K; 100 kPa; Liquid; Concentric cylinders viscometry
± gives the expanded uncertainty stated by the source.
property-label: viscosity
Quote the value and follow it with the unit of measurement.

-- ask What value of viscosity has been recorded for this entry: "Nc1ccccc1"
-- reply 1.96 ± 0.24 mPa·s

-- ask And for CCC(C)O (centres undefined) ?
-- reply 1.33 ± 0.16 mPa·s

-- ask And for "CC(C)O" ?
-- reply 1.05 ± 0.13 mPa·s

-- ask Consider next the molecule CCCC(C)O (centres undefined) in the same way.
-- reply 1.29 ± 0.16 mPa·s

----------
Conditions: 303.15 K; 100 kPa; Liquid; Concentric cylinders viscometry
Please provide measured viscosity for the entries that follow.
Answer format: numeric, mPa·s implied, no suffix.

-- ask Using the record for CCCC(C)O (centres undefined) , report its viscosity.
-- reply 2.94

-- ask Queued: "CC(C)O"
-- reply 1.8

-- ask Same thing, different molecule: CCC(C)O (centres undefined)
-- reply 2.54

-- ask Query "Nc1ccccc1" next
-- reply 3.13

----------
Conditions: 318.15 K; 100 kPa; Liquid; Concentric cylinders viscometry
Kindly supply the reported viscosity values for the records listed here.
Response body: numeric value in mPa·s, unit text excluded.

-- ask Which viscosity reading was recorded for the molecule "Nc1ccccc1" ?
-- reply 2.14

-- ask // repeat for "CC(C)O" and report
-- reply 1.19

-- ask Then this molecule: CCC(C)O (centres undefined)
-- reply 1.54

-- ask Check CCCC(C)O (centres undefined) too.
-- reply 1.65

----------
Kindly supply the reported mass density values for the records listed here.
Conditions: 318.15 K; 100 kPa; Liquid; Vibrating tube method
Numbers after ± are expanded uncertainties.

-- ask Request the reported mass density associated with "CC(C)O"
-- reply 763.4 ± 0.2 kg/m3

-- ask Consider next the compound "Nc1ccccc1" in the same way.
-- reply 1000.4 ± 0.3 kg/m3

-- ask Queued: CCC(C)O (centres undefined)
-- reply 785.2 ± 0.2 kg/m3

-- ask Try the compound CCCC(C)O (centres undefined)
-- reply 788.4 ± 0.2 kg/m3
